# Test system: MALME-3M melanoma
# measurement.protocol: NCI-60 one-dose screen, 48 h (100 = growth as untreated, 0 = no growth, -100 = all killed)
# condition.parameters: 10 µM unless noted
About 83,000 compounds went through this panel and 20% of them were active in at least one assay; those are over-represented in the sample as a whole.
Simple rule here: growth less than 70% is true (1), otherwise false (0).

1. COc1ccc(/C=C/C(=O)c2nnn(-c3ccc(Br)cc3)c2C)cc1OC :: false (0)
2. Cc1cc(F)cc(NS(=O)(=O)c2ccc(-c3cnc(C4CC4)o3)cc2)c1 :: true (1)
3. N#C/C(=C\c1ccc2ccccc2c1)C(=O)Nc1sc2c(c1C#N)CCC2 :: false (0)
4. CC(C)SC1=NC(=C(C(=N1)NC2=ClC=CC=C2)C#N)C3=CC=CC=C3 :: true (1)
5. COc1ccc(C2CC(c3ccc(Nc4nc(NCCO)nc(Nc5ccc(Cl)cc5)n4)cc3)=Nc3c(N)nc(N)nc3N2)cc1 (stereo not given) :: false (0)
